Attribution: patent US20220324953A1

Target: T1, human CTGF (antigen of the Biacore assays) (human, UniProt P29279 27-349)
T1 construct: also called antigen human CTGF; human CTGF protein
T1 sequence (looked up): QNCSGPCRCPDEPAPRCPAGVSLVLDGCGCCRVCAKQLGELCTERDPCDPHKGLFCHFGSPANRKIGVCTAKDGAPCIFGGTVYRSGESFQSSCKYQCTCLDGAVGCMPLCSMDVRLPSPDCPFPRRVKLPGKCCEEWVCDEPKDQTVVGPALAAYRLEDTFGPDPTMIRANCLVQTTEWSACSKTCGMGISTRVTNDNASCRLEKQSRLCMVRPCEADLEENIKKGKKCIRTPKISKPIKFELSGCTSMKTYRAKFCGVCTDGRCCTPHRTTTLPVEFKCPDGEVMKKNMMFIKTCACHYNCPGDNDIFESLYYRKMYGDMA
Test: Biacore, antibody captured on Protein A, CTGF in flow, 1:1 fit
Measured Endpoint: Kd
Please state the value followed by its unit.

>>> result("Hu147-22wk (antibody, human IgG1, kappa, V domains shown) VH: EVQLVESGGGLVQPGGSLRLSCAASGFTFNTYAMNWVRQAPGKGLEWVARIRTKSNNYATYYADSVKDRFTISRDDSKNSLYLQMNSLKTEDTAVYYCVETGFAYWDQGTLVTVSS VL: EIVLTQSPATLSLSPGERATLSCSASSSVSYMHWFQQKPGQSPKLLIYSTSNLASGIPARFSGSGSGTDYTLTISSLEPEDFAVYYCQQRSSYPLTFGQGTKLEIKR")
"1.01 nM"

Consider the record given below.
So what does the record say about Kd for Hu95-42wk (antibody, human IgG1, kappa, V domains shown) VH: EVQLVQSGAEVKKPGASVKVSCKASGFTFTNYDIHWVKQAPGQRLEWIGLVYPYNGGTAYNQKFKDKATLTFDTSASTAYMELSSLRSEDTAVYYCARWGLIPGTTSYFDVWGQGTTVTVSS VL: EIVLTQSPATLSLSPGERATLSCRASSSVSYIHWYQQKPGQSPRPWIYATSNLASGVPARFSGSGSGTSYTLTISRLEPEDFAVYYCQQWNSNPWTFGGGTKVEIKR ? 5.74 nM
